The reported numbers originate from BigSolDB 2.1.

# measurementSetup: in 1,2-dichloroethane, 297.85 K
quantityName: solubility (mole fraction)
Could you keep your reply to the number by itself?

# return recorded solubility (mole fraction) for input `CO/N=C(\C(=O)Sc1nc2ccccc2s1)c1csc(N)n1`
0.00118

----------
# measurementSetup: in acetonitrile, 279.45 K
quantityName: solubility (mole fraction)
Enter the number alone.

Return value of solubility (mole fraction) for input `CO/N=C(\C(=O)Sc1nc2ccccc2s1)c1csc(N)n1` , no commentary.
0.000216

----------
# measurementSetup: in dichloromethane, 298.71 K
quantityName: solubility (mole fraction)
Just the number, please.

Please indicate solubility (mole fraction) recorded for `CO/N=C(\C(=O)Sc1nc2ccccc2s1)c1csc(N)n1`
0.00217

----------
# measurementSetup: in acetone, 293.2 K
quantityName: solubility (mole fraction)
Number only, please.

Indicate its recorded solubility (mole fraction); the molecule in question is `CO/N=C(\C(=O)Sc1nc2ccccc2s1)c1csc(N)n1`
0.0039

----------
# measurementSetup: in acetone, 278.32 K
quantityName: solubility (mole fraction)
Reply with the value as a number alone.

Give solubility (mole fraction) for `CO/N=C(\C(=O)Sc1nc2ccccc2s1)c1csc(N)n1`
0.00245

----------
# measurementSetup: in dichloromethane, 294.03 K
quantityName: solubility (mole fraction)

Supply reported solubility (mole fraction) belonging to this molecule: `CO/N=C(\C(=O)Sc1nc2ccccc2s1)c1csc(N)n1`
0.00171

----------
# measurementSetup: in acetonitrile, 283.46 K
quantityName: solubility (mole fraction)
Lab note: jot the number down without any unit.

Provide one value: measured solubility (mole fraction) of `CO/N=C(\C(=O)Sc1nc2ccccc2s1)c1csc(N)n1`
0.000262

----------
# measurementSetup: in THF, 283.75 K
quantityName: solubility (mole fraction)

Supply solubility (mole fraction) value. Item: `CO/N=C(\C(=O)Sc1nc2ccccc2s1)c1csc(N)n1`
0.0259

----------
# measurementSetup: in acetone, 288.15 K
quantityName: solubility (mole fraction)
Answer with the value's number alone.

Return solubility (mole fraction) for the following compound: `CO/N=C(\C(=O)Sc1nc2ccccc2s1)c1csc(N)n1`
0.00334

----------
# measurementSetup: in THF, 288.8 K
quantityName: solubility (mole fraction)
// return just the number, without any unit appended

Supply recorded solubility (mole fraction) for `CO/N=C(\C(=O)Sc1nc2ccccc2s1)c1csc(N)n1` here.
0.028

----------
# measurementSetup: in acetone, 298.54 K
quantityName: solubility (mole fraction)
// return just the number, without any unit appended

In one line, give reported solubility (mole fraction) of the entry `CO/N=C(\C(=O)Sc1nc2ccccc2s1)c1csc(N)n1` .
0.00472

----------
# measurementSetup: in dichloromethane, 278.6 K
quantityName: solubility (mole fraction)
Please respond with just the number, no unit label.

Tell us which solubility (mole fraction) value is on record for `CO/N=C(\C(=O)Sc1nc2ccccc2s1)c1csc(N)n1`
0.000719

----------
# measurementSetup: in 1,2-dichloroethane, 302.64 K
quantityName: solubility (mole fraction)
Respond using a number only.

Supply reported solubility (mole fraction) belonging to this molecule: `CO/N=C(\C(=O)Sc1nc2ccccc2s1)c1csc(N)n1`
0.00154

----------
# measurementSetup: in acetonitrile, 288.45 K
quantityName: solubility (mole fraction)
Reply: number alone, nothing else.

Identify measured solubility (mole fraction) associated with `CO/N=C(\C(=O)Sc1nc2ccccc2s1)c1csc(N)n1`
0.000342
